Test system: α-Glucosidase from Saccharomyces cerevisiae
test name: α-glucosidase inhibition assay (pNPG substrate)
Type: biochemical
setup conditions: words, based on % inhibition at 100 µM
Description: The α-glucosidase inhibitory activity of 4a–j was evaluated using a standard enzymatic assay. α-Glucosidase from Saccharomyces cerevisiae was employed as the enzyme source, and p-nitrophenyl-α-D-glucopyranoside (pNPG) served as the substrate. […] The reaction was terminated by adding 50 µL of 0.1 M Na2CO3, and the absorbance of the released p-nitrophenol was measured at […] using a microplate reader. […] Statistical significance was evaluated using one-way ANOVA followed by Tukey’s post hoc test.
readout name: Observation (inhibition level, Table S7)

COc1ccc2[nH]c(C(=O)N/N=C/c3cccc(Br)c3)cc2c1
High inhibition
COc1ccc2[nH]c(C(=O)N/N=C/c3ccc([N+](=O)[O-])cc3)cc2c1
High inhibition

----------
System: α-Glucosidase from Saccharomyces cerevisiae
test name: α-glucosidase inhibition assay (pNPG substrate)
Format: biochemical
setup conditions: words, based on % inhibition at 100 µM
readout name: Observation (inhibition level, Table S7)

COc1ccc2[nH]c(C(=O)N/N=C/c3ccccc3)cc2c1
Moderate inhibition
COc1ccc2[nH]c(C(=O)N/N=C/c3ccc(O)c([N+](=O)[O-])c3)cc2c1
Low inhibition
COc1ccc2[nH]c(C(=O)N/N=C/c3cccnc3)cc2c1
Low inhibition
COc1ccc2[nH]c(C(=O)N/N=C/c3ccccc3F)cc2c1
Moderate inhibition

----------
Listing of recorded pIC50 by entry.
measured on: α-Glucosidase from Saccharomyces cerevisiae
test name: α-glucosidase inhibition assay (pNPG substrate)
setup conditions: dose-response, mean ± SD
pIC50: −log10 of the molar value.
readout name: pIC50

COc1ccc2[nH]c(C(=O)N/N=C/c3cccc(Br)c3)cc2c1
4.96
COc1ccc2[nH]c(C(=O)N/N=C/c3ccc4ccccc4c3)cc2c1
4.71
COc1ccc(/C=N/NC(=O)c2cc3cc(OC)ccc3[nH]2)c(O)c1
4.78
COc1ccc2[nH]c(C(=O)N/N=C/c3ccc([N+](=O)[O-])cc3)cc2c1
4.84

----------
System: α-Glucosidase from Saccharomyces cerevisiae
test name: α-glucosidase inhibition assay (pNPG substrate)
Assay type: biochemical
setup conditions: fixed concentration of 100 µM; mean of triplicate (± SD)
Listing of recorded % Inhibition by entry.
readout name: % Inhibition

C[C@H]1O[C@H](O[C@H]2[C@H](O)[C@@H](O)[C@@H](O[C@H]3[C@H](O)[C@@H](O)C(O)O[C@@H]3CO)O[C@@H]2CO)[C@H](O)[C@@H](O)[C@@H]1N[C@H]1C=C(CO)[C@@H](O)[C@H](O)[C@H]1O (stereo partly shown) [Acarbose, acarbose, reference compound]
84.66 ± 0.71%
COc1ccc2[nH]c(C(=O)N/N=C/c3nccs3)cc2c1
31.75 ± 8.42%
COc1ccc2[nH]c(C(=O)N/N=C/c3ccc([N+](=O)[O-])cc3)cc2c1
89.11 ± 1.39%
COc1ccc2[nH]c(C(=O)N/N=C/c3ccccc3)cc2c1
53.23 ± 3.11%
COc1ccc(/C=N/NC(=O)c2cc3cc(OC)ccc3[nH]2)c(O)c1
82.21 ± 4.47%
COc1ccc2[nH]c(C(=O)N/N=C/c3ccc(O)cc3)cc2c1
32.51 ± 8.99%
COc1ccc2[nH]c(C(=O)N/N=C/c3cccc(Br)c3)cc2c1
91.06 ± 1.25%
COc1ccc2[nH]c(C(=O)N/N=C/c3ccc4ccccc4c3)cc2c1
82.73 ± 1.90%
COc1ccc2[nH]c(C(=O)N/N=C/c3ccccc3F)cc2c1
50.65 ± 3.86%
COc1ccc2[nH]c(C(=O)N/N=C/c3ccc(O)c([N+](=O)[O-])c3)cc2c1
27.97 ± 7.96%

----------
Tested on: α-Glucosidase from Saccharomyces cerevisiae
test name: α-glucosidase inhibition assay (pNPG substrate)
Assay type: biochemical
setup conditions: 100 µM; replicate 3
Please use 1 whenever % inhibition R3 is not below 80%, and 0 whenever it is.

COc1ccc2[nH]c(C(=O)N/N=C/c3ccccc3)cc2c1
0
COc1ccc2[nH]c(C(=O)N/N=C/c3ccc4ccccc4c3)cc2c1
1
COc1ccc2[nH]c(C(=O)N/N=C/c3nccs3)cc2c1
0
COc1ccc2[nH]c(C(=O)N/N=C/c3ccccc3F)cc2c1
0
COc1ccc2[nH]c(C(=O)N/N=C/c3ccc(O)cc3)cc2c1
0
COc1ccc2[nH]c(C(=O)N/N=C/c3cccnc3)cc2c1
0
COc1ccc2[nH]c(C(=O)N/N=C/c3ccc([N+](=O)[O-])cc3)cc2c1
1

----------
Test system: α-Glucosidase from Saccharomyces cerevisiae
test name: α-glucosidase inhibition assay (pNPG substrate)
Assay type: biochemical
setup conditions: 100 µM; replicate 1
readout name: % inhibition R1 (%)

COc1ccc(/C=N/NC(=O)c2cc3cc(OC)ccc3[nH]2)c(O)c1
87.826
COc1ccc2[nH]c(C(=O)N/N=C/c3ccc(O)cc3)cc2c1
39.907
COc1ccc2[nH]c(C(=O)N/N=C/c3ccccc3F)cc2c1
54.885
COc1ccc2[nH]c(C(=O)N/N=C/c3cccnc3)cc2c1
34.129
C[C@H]1O[C@H](O[C@H]2[C@H](O)[C@@H](O)[C@@H](O[C@H]3[C@H](O)[C@@H](O)C(O)O[C@@H]3CO)O[C@@H]2CO)[C@H](O)[C@@H](O)[C@@H]1N[C@H]1C=C(CO)[C@@H](O)[C@H](O)[C@H]1O (some centres unmarked) [Acarbose, acarbose, reference compound]
84.457
COc1ccc2[nH]c(C(=O)N/N=C/c3ccc(O)c([N+](=O)[O-])c3)cc2c1
37.425
COc1ccc2[nH]c(C(=O)N/N=C/c3cccc(Br)c3)cc2c1
92.817
COc1ccc2[nH]c(C(=O)N/N=C/c3nccs3)cc2c1
41.141
COc1ccc2[nH]c(C(=O)N/N=C/c3ccc4ccccc4c3)cc2c1
84.106
COc1ccc2[nH]c(C(=O)N/N=C/c3ccc([N+](=O)[O-])cc3)cc2c1
90.888
COc1ccc2[nH]c(C(=O)N/N=C/c3ccccc3)cc2c1
56.471

----------
Test system: α-Glucosidase from Saccharomyces cerevisiae
test name: α-glucosidase inhibition assay (pNPG substrate)
Format: biochemical
setup conditions: words, based on % inhibition at 100 µM
readout name: Observation (activity level, Table S9)

COc1ccc(/C=N/NC(=O)c2cc3cc(OC)ccc3[nH]2)c(O)c1
High activity
COc1ccc2[nH]c(C(=O)N/N=C/c3ccc4ccccc4c3)cc2c1
High activity
COc1ccc2[nH]c(C(=O)N/N=C/c3cccnc3)cc2c1
Low activity
COc1ccc2[nH]c(C(=O)N/N=C/c3ccccc3)cc2c1
Moderate activity
COc1ccc2[nH]c(C(=O)N/N=C/c3ccccc3F)cc2c1
Moderate activity
COc1ccc2[nH]c(C(=O)N/N=C/c3nccs3)cc2c1
Low activity
COc1ccc2[nH]c(C(=O)N/N=C/c3cccc(Br)c3)cc2c1
High activity
COc1ccc2[nH]c(C(=O)N/N=C/c3ccc([N+](=O)[O-])cc3)cc2c1
High activity
COc1ccc2[nH]c(C(=O)N/N=C/c3ccc(O)cc3)cc2c1
Moderate activity
COc1ccc2[nH]c(C(=O)N/N=C/c3ccc(O)c([N+](=O)[O-])c3)cc2c1
Low activity

----------
Test system: α-Glucosidase from Saccharomyces cerevisiae
test name: α-glucosidase inhibition assay (pNPG substrate)
Format: biochemical
setup conditions: 100 µM; replicate 3
readout name: % inhibition R3 (%)

C[C@H]1O[C@H](O[C@H]2[C@H](O)[C@@H](O)[C@@H](O[C@H]3[C@H](O)[C@@H](O)C(O)O[C@@H]3CO)O[C@@H]2CO)[C@H](O)[C@@H](O)[C@@H]1N[C@H]1C=C(CO)[C@@H](O)[C@H](O)[C@H]1O (stereo partly drawn) [Acarbose, acarbose, reference compound]
85.609
COc1ccc2[nH]c(C(=O)N/N=C/c3cccc(Br)c3)cc2c1
90.041
COc1ccc2[nH]c(C(=O)N/N=C/c3ccc(O)c([N+](=O)[O-])c3)cc2c1
28.540
